Below, each of the sequences is paired with its reported PBM binding z-score value.
tested on: RARg homodimer (NR concentration 270 nM); test: PBM binding z-score (relative to random genomic background probes); higher = stronger binding; sequences stand for … in GC…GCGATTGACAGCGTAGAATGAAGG
In your answer, state the number alone without any accompanying words.

Ask | Provide only the value of recorded PBM binding z-score for `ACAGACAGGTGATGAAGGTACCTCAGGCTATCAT`
Reply | 0.411

Ask | Provide only the value of recorded PBM binding z-score for `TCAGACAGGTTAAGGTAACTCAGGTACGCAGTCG`
Reply | 1.08

Ask | Provide only the value of recorded PBM binding z-score for `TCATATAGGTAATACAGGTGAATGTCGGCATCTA`
Reply | 0.652

Ask | Provide only the value of recorded PBM binding z-score for `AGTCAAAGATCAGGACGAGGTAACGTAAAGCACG`
Reply | 0.425

---
Ask | Provide only the value of recorded PBM binding z-score for `TGAATGAGGTTATAAGACCAGGGAACGTTGCAAA`
Reply | 0.814

Ask | Provide only the value of recorded PBM binding z-score for `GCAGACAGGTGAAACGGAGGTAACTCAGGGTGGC`
Reply | 0.25

Ask | Provide only the value of recorded PBM binding z-score for `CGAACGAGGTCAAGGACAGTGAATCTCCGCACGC`
Reply | 6.59
